System: LOX IMVI melanoma
assay-comment: NCI-60 one-dose screen, 48 h
stated-conditions: 10 µM unless noted
Compounds without any hit were thinned out: in the full panel of roughly 83,000, 20% have a hit. Calls of active or inactive are those of the source. Rule for the calls: active = growth percent below 10; inactive = the rest.
Please state which outcome applies, choosing from 1 = active, -1 = inactive

Look over these answered cases.
COc1cc2cc(NCc3ccncc3)nc(C)c2cc1OC; -1
Nc1nc(Nc2cccnc2)sc1C(=O)c1ccccc1F; -1
CCOC(=O)c1cnn(-c2ccc(S(N)(=O)=O)cc2)c1N; -1
O=C(/C=C/c1cccs1)Nc1ncc(Cc2ccc(Cl)c(Cl)c2)s1; -1
CCCCCCCCn1ccc2cc(NC(=O)CN3CCN(c4nc(C)cc(N5CCCCC5)n4)CC3)ccc21; -1

Query: Dear colleague, could you share the recorded outcome for "COc1ccc(-c2csc(NC(=O)CN3CCN(CCO)CC3)n2)cc1NS(=O)(=O)c1cccc2c(N(C)C)cccc12" when you have a moment?
Result: 1

Query: Dear colleague, could you share the recorded outcome for "C=C1C(=O)O[C@H]2[C@H]1CC/C(CNS(=O)(=O)c1ccc3ccccc3c1)=C\CC[C@@]1(C)O[C@@H]21" when you have a moment?
Result: 1

Query: Dear colleague, could you share the recorded outcome for "CSc1nnc(-c2cc3c([nH]c4ccccc43)c(-c3cccc(O)c3)n2)n1-c1ccc(C)cc1" when you have a moment?
Result: -1

Query: Dear colleague, could you share the recorded outcome for "CCOC(=O)c1c(-c2ccc(C)cc2)c(C#N)c(=O)n(-c2cccc(C(F)(F)F)c2)c1N" when you have a moment?
Result: -1

Query: Dear colleague, could you share the recorded outcome for "O=C1C=C(Nc2ccccc2)c2ncccc2C1=O" when you have a moment?
Result: 1

Query: Dear colleague, could you share the recorded outcome for "Cc1ccc(Cl)cc1N1CCN(C(=O)[C@@H]2C[C@@H]2c2ccc(F)cc2)CC1" when you have a moment?
Result: -1

Query: Dear colleague, could you share the recorded outcome for "COCCn1cc(-c2csc(-c3cn(C)c4ccc(F)cc34)n2)c2cccnc21" when you have a moment?
Result: -1

Query: Dear colleague, could you share the recorded outcome for "N#Cc1c(N)nnn1Cc1cc(=O)oc2ccc(O)cc12" when you have a moment?
Result: -1

Query: Dear colleague, could you share the recorded outcome for "NS(=O)(=O)c1ccc(C(=O)N=Nc2c(O)[nH]c3c(F)cccc23)cc1" when you have a moment?
Result: -1

Query: Dear colleague, could you share the recorded outcome for "Cc1ccc(Cc2cnc(NC(=O)c3cc(C)oc3C)s2)cc1" when you have a moment?
Result: -1

Query: Dear colleague, could you share the recorded outcome for "O=C(c1ccc(Nc2nccc(NCCCNc3ccnc4cc(Cl)ccc34)n2)cc1)N1CCCCC1" when you have a moment?
Result: 1

---

System: COLO 205 colon
assay-comment: NCI-60 one-dose screen, 48 h (100 = growth as untreated, 0 = no growth, -100 = all killed)
stated-conditions: 100 µM
Compounds without any hit were thinned out: in the full panel of roughly 83,000, 20% have a hit.
Consider the following compounds; for each one, report its growth.
Give bare numbers, in %.

Hi! Can you tell me growth for each of these compounds?
1. COc1ccc(C(=O)/C=C/c2ccc(OCc3cccc(C(F)(F)F)c3)c(OC)c2)cc1OC
2. CC(=O)/C=C/c1ccc(N(CCO)Cc2ccc(C(C)(C)C)cc2)cc1
3. CC(=O)/C=C/c1ccc(OCc2ccc(Cl)cc2)cc1
4. CCN(Cc1ccccc1)c1ccc(/C=C2\COc3ccccc3C2=O)cc1

Result:
1. 23.2
2. -76.6
3. -21.9
4. 38.9

Query: Please report the recorded growth for "O=C(/C=C/c1cccc(Oc2ccc(Cl)cc2)c1)c1ccccc1" .
Result: -71

---

Tested on: BT-549 breast
assay-comment: NCI-60 one-dose screen, 48 h (100 = growth as untreated, 0 = no growth, -100 = all killed)
stated-conditions: 100 µM
About 83,000 compounds went through this panel and 20% of them were active in at least one assay; those are over-represented in the sample as a whole. Calls of active or inactive are those of the source. Rule for the calls: active = growth percent below 10; inactive = the rest.
measurement-type: growth

For orientation, consider the following solved cases.
COc1ccc(C(=O)/C=C/c2ccc(OCc3ccc(Cl)cc3)cc2)cc1OC; 22% (inactive)
CC(=O)/C=C/c1ccc(N(CCO)Cc2ccc(C(C)(C)C)cc2)cc1; -88.9% (active)
CC(=O)/C=C/c1ccc(OCc2ccc(Cl)cc2)cc1; 38% (inactive)
COc1ccc(C(=O)/C=C/c2ccc(OCc3cccc(C(F)(F)F)c3)c(OC)c2)cc1OC; -41.3% (active)
O=C(/C=C/c1cccc(Oc2ccc(Cl)cc2)c1)c1ccccc1; -61.3% (active)

Query: Give growth (BT-549 breast) of the following molecule: "CCN(Cc1ccccc1)c1ccc(/C=C2\COc3ccccc3C2=O)cc1"
Result: 16.3% (inactive)

---

Consider the following compounds; for each one, report its growth.
Test system: UACC-257 melanoma
assay-comment: NCI-60 one-dose screen, 48 h (100 = growth as untreated, 0 = no growth, -100 = all killed)
stated-conditions: 10 µM unless noted
Compounds without any hit were thinned out: in the full panel of roughly 83,000, 20% have a hit. Calls of active or inactive are those of the source. Rule for the calls: active = growth percent below 10; inactive = the rest.

For orientation, consider the following solved cases.
COC(=O)N/N=C/c1c[n+]([O-])c2ccccc2[n+]1[O-]; 95.1% (inactive)
Nc1n[nH]c2cccc(C#Cc3cccc(C(=O)Nc4ccc(CN5CCOCC5)c(C(F)(F)F)c4)c3)c12; 40.1% (inactive)
COc1ccc(C2Nc3nc(SC)nc(N)c3N=C3c4ccccc4CCC32)cc1 (stereo not given); 122% (inactive)
CC1(C)C(N)=Nc2cc(OCCCN3Cc4ccc(OCCc5cn(CC(=O)N6CCC(CCN7CCCC7)CC6)nn5)cc4C3)c(OCC3CC3)cc21; 112% (inactive)

Now for a further compound.
Query: Give growth (UACC-257 melanoma) of the following compound: "C=CCOc1ccc(/C=C2\SC(=S)N(CCc3ccc(O)cc3)C2=O)cc1"
Result: 92.6% (inactive)

---

System: UACC-62 melanoma
assay-comment: NCI-60 one-dose screen, 48 h
stated-conditions: 10 µM unless noted
Method: Growth inhibition of the UACC-62 human tumor cell line is measured as a screen for anti-cancer activity. Cells are grown in 96 well plates and exposed to the test compound for 48 hours. Compounds are tested at a single concentration, which is 10^-5 M for most compounds. The reported endpoint is percent growth (GI% or GIPRCNT), where numbers from 0 - 100% represent growth inhibition, and numbers from -100% - 0 represent cell death. For example, a value of 40 represents 60% growth inhibition. […]
The panel holds about 83,000 compounds, 20% with a hit somewhere; the sample as a whole holds those more often. Activity calls are given as the source filed them. The calls were made as follows: active = growth percent below 10; inactive = the rest.
Please state which outcome applies, choosing from 1 for active, -1 for inactive

Look over these answered cases.
[2H]C([2H])([2H])Oc1cc(F)ccc1/C=C/C(=O)/C=C(/C=C/c1ccc(F)cc1OC([2H])([2H])[2H])OB(F)F; -1
COc1ccc(/C=C/C(=O)c2cc3c(N)c(C(=O)Nc4ccccc4)sc3nc2C)cc1; -1

Query: Dear colleague, could you share the recorded outcome for "CCN1CCN(C(=O)[C@]23CC[C@@H](C)[C@H](C)[C@@H]2C2=CC[C@@H]4[C@@]5(C)CCC(=O)C(C)(C)[C@@H]5CC[C@@]4(C)[C@]2(C)CC3)CC1" when you have a moment?
Result: 1

Query: Dear colleague, could you share the recorded outcome for "COc1ccc(/C=N/NC(=O)CN2CCN(c3cc4c(cc3F)c(=O)c(C(=O)O)cn4C3CC3)CC2)cc1O" when you have a moment?
Result: -1

Query: Dear colleague, could you share the recorded outcome for CCCCCO/N=C\c1c2c(O)c3c(O)c(C)c4c(c3c1O)C(=O)C(C)(O/C=C\C(OC)C(C)C(OC(C)=O)C(C)C(O)C(C)C(O)C(C)/C=C\C=C(\C)C(=O)N2)O4 (configuration not stated) when you have a moment?
Result: -1

Query: Dear colleague, could you share the recorded outcome for "C=CCN1C=CC(=O)[C@H](O[Si](C)(C)C(C)(C)C)[C@@H]1/C=C/c1ccccc1" when you have a moment?
Result: 1

Query: Dear colleague, could you share the recorded outcome for "CCOC(=O)c1cc2c(n1Cc1cc(OC)cc(OC)c1Br)-c1nc(NC(C)=O)sc1CCC2" when you have a moment?
Result: -1

---

Tested on: SF-295 CNS
assay-comment: NCI-60 one-dose screen, 48 h
stated-conditions: 10 µM unless noted
Experimental: Cells are grown in 96 well plates and exposed to the test compound for 48 hours. Compounds are tested at a single concentration, which is 10^-5 M for most compounds. The reported endpoint is percent growth (GI% or GIPRCNT), where numbers from 0 - 100% represent growth inhibition, and numbers from -100% - 0 represent cell death. For example, a value of 40 represents 60% growth inhibition. A value of 0 means no net growth occurred over the course of the experiment. […]
The panel holds about 83,000 compounds, 20% with a hit somewhere; the sample as a whole holds those more often. The source made the active and inactive calls. Rule for the calls: active = growth percent below 10; inactive = the rest.
Please state which outcome applies, choosing from active, inactive

Look over these answered cases.
CC[C@]1(O)CC2CN(CCc3c([nH]c4ccccc34)C(C(=O)OC)(c3cc4c(cc3OC)N(C=O)[C@H]3[C@@](O)(C(=O)OC)[C@H](OC(C)=O)[C@]5(CC)[C@@H]6C[C@@H]6CN6CC[C@]43[C@@H]65)C2)C1 (some centres not stated); active
CCN1CCN(C(=O)[C@]23CC[C@@H](C)[C@H](C)[C@@H]2C2=CC[C@@H]4[C@@]5(C)CCC(=O)C(C)(C)[C@@H]5CC[C@@]4(C)[C@]2(C)CC3)CC1; inactive
N#CC(Cc1cccc2ccccc12)c1cc2ccccc2[nH]1 (configuration not stated); inactive
C=CCOc1ccc(/C=C2\SC(=S)N(CCc3ccc(O)cc3)C2=O)cc1; inactive
O=C(Nc1ccc(F)cc1)c1cc2cc(Nc3nc(-c4ccccc4)nc4ccccc34)ccc2oc1=O; inactive

Query: Dear colleague, could you share the recorded outcome for "COc1ccc2c(c1)oc1c(C)c3c(c(C)c12)C(=O)N(Nc1ccccc1)C3=O" when you have a moment?
Result: inactive

Query: Dear colleague, could you share the recorded outcome for "COc1ccc(C/C(C)=C(/c2ccc(OCCN3CCCCCC3)cc2)c2ccc(OC(=O)c3ccccc3)cc2)cc1" when you have a moment?
Result: inactive
